Data origin, for the record: ChEMBL document CHEMBL3758140

biological target: UniProtKB P09917; assay: Inhibition of human recombinant 5-LOX expressed in Escherichia coli BL21 using arachidonic acid as substrate assessed as LTB4 formation preincubated for 15 mins measured after 10 mins by HPLC analysis
Sequence (P09917 whole entry): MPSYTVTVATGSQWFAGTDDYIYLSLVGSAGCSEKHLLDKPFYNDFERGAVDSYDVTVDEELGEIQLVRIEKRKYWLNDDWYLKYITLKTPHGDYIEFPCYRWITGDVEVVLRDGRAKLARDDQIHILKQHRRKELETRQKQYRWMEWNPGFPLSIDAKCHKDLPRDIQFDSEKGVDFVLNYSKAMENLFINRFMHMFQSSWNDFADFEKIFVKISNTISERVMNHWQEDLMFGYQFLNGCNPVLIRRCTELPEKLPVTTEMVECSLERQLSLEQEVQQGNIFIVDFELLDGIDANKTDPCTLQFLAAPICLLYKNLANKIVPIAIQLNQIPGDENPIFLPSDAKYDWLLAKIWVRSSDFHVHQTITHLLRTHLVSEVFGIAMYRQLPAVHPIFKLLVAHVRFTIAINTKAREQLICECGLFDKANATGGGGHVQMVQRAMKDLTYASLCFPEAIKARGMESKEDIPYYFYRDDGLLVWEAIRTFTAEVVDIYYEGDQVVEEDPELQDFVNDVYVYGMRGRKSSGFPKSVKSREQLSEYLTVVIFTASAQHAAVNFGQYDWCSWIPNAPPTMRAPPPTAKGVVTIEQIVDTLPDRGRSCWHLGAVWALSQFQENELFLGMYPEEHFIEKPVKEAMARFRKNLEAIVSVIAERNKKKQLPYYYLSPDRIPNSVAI
metric_name: pIC50
Please report pIC50 as the negative decimal logarithm of the molar concentration, giving only the number.

I have this compound here, "CCOC(=O)c1c(CSc2ccccc2Cl)[nH]c2c1cc(OC)c1ccccc12" , and I need its recorded pIC50.
5.76

// same read-out, input: "CCOC(=O)c1c(CSc2ccccc2Cl)[nH]c2c1cc(O)c1ccccc12"
6.09

// same read-out, input: "CCOC(=O)c1c(CSc2ccccc2C)[nH]c2c1cc(O)c1ccccc12"
6.48

// same read-out, input: "CCOC(=O)c1c(CSc2cc(Cl)cc(Cl)c2)[nH]c2c1cc(O)c1ccccc12"
6.66
